Kindly supply the reported pKi values for the records listed here.
measurement-target: Caspase-1 (Homo sapiens, UniProt P29466)
assay-comment: Inhibition of IL-1 beta converting enzyme (ICE) in human blood monocytes
Remember, pKi is on a log scale: it is -log10 of the molar concentration.

Would you kindly share the measured pKi for C=CCOC(=O)N[C@@H](CC(=O)O)C(=O)COC(=O)NCc1ccccc1 ?
4.13

Would you kindly share the measured pKi for O=C(O)C[C@H](NC(=O)OCc1ccccc1)C(=O)COCCCc1ccccc1 ?
4.62

Would you kindly share the measured pKi for C=CCOC(=O)N[C@@H](CC(=O)O)C(=O)COC(=O)CCC1CCCCC1 ?
5.46

Would you kindly share the measured pKi for C=CCOC(=O)N[C@@H](CC(=O)O)C(=O)CN(CCc1ccccc1)Cc1ccccc1 ?
4.17

Would you kindly share the measured pKi for C=CCOC(=O)N[C@@H](CC(=O)O)C(=O)COC(=O)CCc1ccccc1 ?
4.70

* * *

Kindly supply the reported Ki values for the records listed here.
measurement-target: Caspase-1 (Homo sapiens, UniProt P29466)
Sequence (P29466 whole entry): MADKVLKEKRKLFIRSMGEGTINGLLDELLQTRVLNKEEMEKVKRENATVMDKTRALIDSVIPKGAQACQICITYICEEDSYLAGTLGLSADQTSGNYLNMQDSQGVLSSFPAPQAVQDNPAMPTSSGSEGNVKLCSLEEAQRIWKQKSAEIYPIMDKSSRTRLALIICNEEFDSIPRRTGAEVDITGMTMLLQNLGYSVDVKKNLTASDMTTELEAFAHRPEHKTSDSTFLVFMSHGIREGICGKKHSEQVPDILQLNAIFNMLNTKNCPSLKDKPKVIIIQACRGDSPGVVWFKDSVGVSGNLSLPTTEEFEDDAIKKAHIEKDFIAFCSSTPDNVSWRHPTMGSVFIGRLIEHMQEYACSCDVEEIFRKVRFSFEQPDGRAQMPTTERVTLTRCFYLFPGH
assay-comment: Inhibition of IL-1 beta converting enzyme (ICE) in human blood monocytes
Type: cell-based
Express your answer in µM, writing the number without its unit.

Would you kindly share the measured Ki for C=CCOC(=O)N[C@@H](CC(=O)O)C(=O)CNC(Cc1ccccc1)c1ccccc1 (stereo partly specified) ?
70

Would you kindly share the measured Ki for C=CCOC(=O)N[C@@H](CC(=O)O)C(=O)COC(=O)CCOc1ccccc1 ?
23

Would you kindly share the measured Ki for C=CCOC(=O)N[C@@H](CC(=O)O)C(=O)COC(=O)/C=C/c1ccccc1 ?
90

Would you kindly share the measured Ki for C=CCOC(=O)N[C@@H](CC(=O)O)C(=O)CSCCCc1ccccc1 ?
27

Would you kindly share the measured Ki for CC(=O)N[C@@H](Cc1ccc(O)cc1)C(=O)N[C@H](C(=O)N[C@@H](C)C(=O)N[C@@H](CC(=O)O)C(=O)CCCCc1ccccc1)C(C)C ?
42

Would you kindly share the measured Ki for C=CCOC(=O)N[C@@H](CC(=O)O)C(=O)CNCCCc1ccccc1 ?
67

Would you kindly share the measured Ki for C=CCOC(=O)N[C@@H](CC(=O)O)C(=O)CNCCc1ccccc1 ?
4.4
